Reported growth inhibition values for a set of molecules
Assay details: NCI Yeast Anticancer Drug Screen. Data for the mec2-1 strain (AID 157)
Condition parameters: S. cerevisiae mec2-1 strain, at 50.0 µM, active compounds read high
About 79,000 compounds went through this panel and 15% of them were active in at least one assay; those are over-represented in the sample as a whole.
Assay readout: growth inhibition (%)

>>> reading("CC(=O)N1CN2CN(C1)CN(C(C)=O)C2")
-8.95
>>> reading("COc1ccc2c(c1O)CN1CCc3cc4c(cc3C1C2)OCO4 (configuration not stated)")
22.1
>>> reading("CC1(C)CC(N2CCCCC2)=CC(=[N+]2CCCCC2)C1")
-2
>>> reading("O=C1NC(=O)C(O)(Cc2ccccn2)C(=O)N1")
6.45
>>> reading("CN1CCN(c2ccc(Cl)cc2)CC1")
-17.6
>>> reading("NC(=O)C(N)C(F)c1ccccc1 (configuration not stated)")
2.85
>>> reading("C[n+]1ccc(/C=C\\c2ccc(N(CCCl)CCCl)cc2)c2ccccc21")
15.9
>>> reading("O=C(O)c1cc(Cl)nc(Cl)c1")
22
>>> reading("C=C(C)[C@H]1Cc2c(ccc3c2O[C@@H]2COc4cc(OC)c(OC)cc4[C@@H]2C3=O)O1")
19.2
>>> reading("CCC1(CCC(C)C)C(=O)NC(=O)N(C)C1=O (configuration not stated)")
-1.2
>>> reading("CCCCCCCCCCCCCCCCCC(=O)[O][Pb]([CH3])([CH3])[CH3]")
0.5
>>> reading("CCCCNC(=O)C(Cl)Cl")
5.4

----------
Assay details: NCI Yeast Anticancer Drug Screen. Data for the sgs1 mgt1 strain (AID 161);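 note: 0% = growth of cultures given vehicle only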
Condition parameters: S. cerevisiae sgs1 mgt1 strain, at 50.0 µM, active compounds read high
Compounds without any hit were thinned out: in the full panel of roughly 79,000, 15% have a hit.
Assay readout: growth inhibition (%)

>>> reading("Cc1ccc(NN=O)nc1")
-3.9
>>> reading("O=[N+]([O-])c1ccc(N2CC2)c([N+](=O)[O-])c1")
10.5
>>> reading("COC(=O)C(Cl)Cl")
-1.85
>>> reading("CC(NC1=NCCO1)c1ccsc1 (configuration not stated)")
3.5
>>> reading("CC(C)N1C(=O)NC(=O)C2(CCCC2)C1=O")
-1.5
>>> reading("CN(C)c1ccc(C(c2c(O)c3ccc(O)cc3oc2=O)c2c(O)c3ccc(O)cc3oc2=O)cc1")
22.2
>>> reading("C[C@]12CCC(=O)C[C@@H]1CC[C@@H]1[C@@H]2CC[C@]2(C)[C@@H](OC(=O)N(CCCl)N=O)CC[C@@H]12")
24.5
>>> reading("C=C(CC(=O)O)C(=O)O")
-3.85
>>> reading("N#CS.N=C=S.N=C=S.[Co+3].[NH-]CC[NH-].[NH-]CC[NH-]")
36.4
>>> reading("CCN1C(=O)NC(=O)C(C)(N2CCCCC2)C1=O (configuration not stated)")
25.9
>>> reading("Cc1cc(F)ccc1[As](=O)(O)O")
-3.25
>>> reading("CCOC(=O)NP(=O)(Nc1ccc(C)cc1)Nc1ccc(C)cc1")
-0.3

----------
Assay details: NCI Yeast Anticancer Drug Screen. Data for the rad50 strain (AID 155);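 note: 0% = growth of vehicle-only cultures of the same strain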
Condition parameters: S. cerevisiae rad50 strain growth inhibition; at 50.0 µM; active compounds read high
About 79,000 compounds went through this panel and 15% of them were active in at least one assay; those are over-represented in the sample as a whole.
Entries annotated with measured growth inhibition
Assay readout: growth inhibition (%)

>>> reading("Cn1nnc(-c2nnn(C)n2)n1")
-19.1
>>> reading("c1ccc(CCN2CCCCC2)nc1")
2.55
>>> reading("CCOC(=O)C(Cc1ccc(N(CCCl)CCCl)cc1)NC(=O)C(C)NC(C)=O (configuration not stated)")
0.45
>>> reading("Nc1cc(Cl)ccc1Cl")
1.1
>>> reading("CCOC(OCC)c1ccc2c(c1)OCO2")
5.65
>>> reading("CC[As](=O)(O)CCCc1ccccc1")
5.55
>>> reading("CC(C)NCC(O)c1ccc(Cl)c(Cl)c1 (configuration not stated)")
-28.6

Measured values drawn from PubChem BioAssay (NCI) for this set.
